These entries and their values trace back to patent US9073855B2.

# Target of assay: GST-Bcl-XL (Homo sapiens)
# Sequence (Q07817 whole entry): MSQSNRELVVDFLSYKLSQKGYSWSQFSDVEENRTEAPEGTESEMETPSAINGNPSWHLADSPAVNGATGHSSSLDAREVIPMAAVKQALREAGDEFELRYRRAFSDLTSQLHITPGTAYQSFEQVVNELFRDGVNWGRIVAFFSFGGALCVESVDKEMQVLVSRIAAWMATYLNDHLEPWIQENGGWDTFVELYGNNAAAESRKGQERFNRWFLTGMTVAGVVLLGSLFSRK
# Protocol: TR-FRET binding assay, GST-Bcl-XL with F-Bak peptide probe
# Measurement parameters: TR-FRET Binding Affinity, GST-Bcl-XL, F-Bak peptide probe
pKi: −log10 of the molar value.
Tag: true (1) if measured pKi is not below 7, false (0) if it is.

INSERT INTO assay_data (molecule, class_assignment) VALUES
  ('CC1(C)CCC(CN2CCN(c3ccc(C(=O)NS(=O)(=O)c4cnc(OCC5CCOCC5)c(Br)c4)c(Oc4ccc5[nH]ccc5c4)c3)CC2)=C(c2ccc(Cl)cc2)C1', 'false (0)'),
  ('COCCOCCNc1ccc(S(=O)(=O)NC(=O)c2ccc(N3CCN(CC4=C(c5ccc(Cl)cc5)CC(C)(C)CC4)CC3)cc2Oc2ccc3[nH]ccc3c2)cc1[N+](=O)[O-]', 'false (0)'),
  ('CC1(C)CCC(CN2CCN(c3ccc(C(=O)NS(=O)(=O)c4ccc(NCCCN5CCCC5)c([N+](=O)[O-])c4)c(Oc4cccc5[nH]ccc45)c3)CC2)=C(c2cccc(F)c2)C1', 'true (1)'),
  ('COc1ccc(Nc2ccc(S(=O)(=O)NC(=O)c3ccc(N4CCN(CC5=C(c6ccc(Cl)cc6)CC(C)(C)CC5)CC4)cc3Oc3ccc4[nH]ccc4c3)cc2[N+](=O)[O-])cc1O', 'false (0)'),
  ('O=C(NS(=O)(=O)c1ccc(NCC2CCOCC2)c(S(=O)(=O)C(F)(F)F)c1)c1ccc(N2CCN(Cc3cc(OCCN4CCOCC4)ccc3-c3ccc(Cl)cc3)CC2)cc1Oc1ccccc1', 'false (0)'),
  ('CC1(C)CCC(CN2CCN(c3ccc(C(=O)NS(=O)(=O)c4ccc(NCC5CN(C6CC6)CCO5)c([N+](=O)[O-])c4)c(Oc4cccc5[nH]ncc45)c3)CC2)=C(c2ccc(Cl)cc2)C1 (centres unmarked)', 'true (1)'),
  ('C[C@@H](c1ccccc1-c1ccc(Cl)cc1)N1CCN(c2ccc(C(=O)NS(=O)(=O)c3ccc(NCC4CCOCC4)c([N+](=O)[O-])c3)c(Oc3cccc4[nH]ccc34)c2)CC1', 'false (0)'),
  ('CN1CCN(CCCNc2ccc(S(=O)(=O)NC(=O)c3ccc(N4CCN(CC5=C(c6ccc(Cl)cc6)CC(C)(C)CC5)CC4)cc3Oc3ccc4[nH]ccc4c3)cc2[N+](=O)[O-])CC1', 'true (1)'),
  ('O=C(NS(=O)(=O)c1ccc(NCC2CCOCC2)c(S(=O)(=O)C(F)(F)F)c1)c1ccc(N2CCN(Cc3cc(OCCCN4CCCCC4)ccc3-c3ccc(Cl)cc3)CC2)cc1Oc1ccccc1', 'false (0)'),
  ('CC1(C)CCC(CN2CCN(c3ccc(C(=O)NS(=O)(=O)c4cnc(OCCN5CCOCC5)c(C#N)c4)c(Oc4ccc5[nH]ccc5c4)c3)CC2)=C(c2ccc(Cl)cc2)C1', 'true (1)'),
  ('CC1(C)CCC(CN2CCN(c3ccc(C(=O)NS(=O)(=O)c4cnc(NCC5CCOCC5)c(Br)c4)c(Oc4ccc5[nH]ccc5c4)c3)CC2)=C(c2ccc(Cl)cc2)C1', 'false (0)'),
  ('CN1CCC(Nc2ccc(S(=O)(=O)NC(=O)c3ccc(N4CCN(CC5=C(c6ccc(Cl)cc6)CC(C)(C)CC5)CC4)c(F)c3Oc3ccc4[nH]ccc4c3)cc2[N+](=O)[O-])CC1', 'false (0)'),
  ('CN(C)CCCNc1ccc(S(=O)(=O)NC(=O)c2ccc(N3CCN(CC4=C(c5ccc(Cl)cc5)CCC(C)(C)C4)CC3)cc2Oc2ccc3[nH]ccc3c2)cc1[N+](=O)[O-]', 'true (1)'),
  ('O=C(NS(=O)(=O)c1ccc(NCC2CCOCC2)c([N+](=O)[O-])c1)c1ccc(N2CCN(Cc3c(OCCN4CCOCC4)cccc3-c3ccc(Cl)cc3)CC2)cc1Oc1cccc2[nH]ccc12', 'false (0)'),
  ('O=C(NS(=O)(=O)c1ccc(NCC2CCOCC2)c([N+](=O)[O-])c1)c1ccc(N2CCN(Cc3cc(CN4CCCC4)ccc3-c3ccc(Cl)cc3)CC2)cc1Oc1cccc2[nH]ccc12', 'false (0)'),
  ('O=C(NS(=O)(=O)c1ccc(NCCCN2CCOCC2)c([N+](=O)[O-])c1)c1ccc(N2CCN(Cc3ccccc3-c3ccc(Cl)cc3)CC2)cc1Oc1ccc2[nH]ccc2c1', 'false (0)'),
  ('CC1(C)CCC(CN2CCN(c3ccc(C(=O)NS(=O)(=O)c4ccc(NC[C@@H]5CCCOC5)c([N+](=O)[O-])c4)c(Oc4ccc5[nH]ccc5c4)c3)CC2)=C(c2ccc(Cl)cc2)C1', 'false (0)'),
  ('Cc1ccc(S(=O)(=O)NC(=O)c2ccc(N3CCN(Cc4ccccc4-c4ccc(Cl)cc4)CC3)cc2Oc2ccccc2)cc1', 'false (0)');
